Biological target: MAdCAM-IgG1 Fc fusion (human)
Sequence (chain, as listed by the source): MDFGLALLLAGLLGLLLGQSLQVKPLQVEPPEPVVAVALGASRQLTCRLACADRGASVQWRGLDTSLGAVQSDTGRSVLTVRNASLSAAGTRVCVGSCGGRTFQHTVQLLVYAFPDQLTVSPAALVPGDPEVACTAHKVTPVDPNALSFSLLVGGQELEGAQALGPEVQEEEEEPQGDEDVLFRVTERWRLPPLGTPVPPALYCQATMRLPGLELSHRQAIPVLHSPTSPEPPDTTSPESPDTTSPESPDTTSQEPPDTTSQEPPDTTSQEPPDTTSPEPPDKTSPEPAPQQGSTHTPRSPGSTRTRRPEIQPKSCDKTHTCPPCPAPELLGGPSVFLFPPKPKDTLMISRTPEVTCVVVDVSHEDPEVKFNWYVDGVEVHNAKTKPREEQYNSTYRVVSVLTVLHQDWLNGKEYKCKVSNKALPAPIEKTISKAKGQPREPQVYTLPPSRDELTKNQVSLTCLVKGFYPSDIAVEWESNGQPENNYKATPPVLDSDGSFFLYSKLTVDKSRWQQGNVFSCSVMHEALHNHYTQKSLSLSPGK
Assay: competition, JY cell adhesion
measured-parameter: IC50 (µg/mL)
The reply should contain only the number, in µg/mL.

{"columns": ["binder", "unit-abbreviation", "IC50"],
 "data": [
  ["9.8.2 (antibody, V domains shown) VH: QVQLVESGGGVVQPGRSLRLSCAASGFTFSSYGMHWVRQAPGKGLEWVAVIWYDGSNEYYADSVKGRFTISRDNSKNTLYLQMNSLRAEDTAVYYCARGAYHFAYWGQGTLVTVSS VL: DMRVPAQLLGLLLLWLSVAGARCDIQMTQSPSSLSASVGDRVTITCQASQDISNYLNWYQQKPGKAPKLLIYDASNLETGVPSRFSGSGSGTDFTFTISSLQPEDIATYSCQHSDNLSITFGQGTRLEIKR", "µg/mL", 0.02],
  ["6.34.2 (antibody, V domains shown) VH: QVQLVESGGGVVQPGRSLRLSCAASGFTFSSYGMHWVRQAPGKGLEWVAVISNDGNNKYYADSVKGRFTISRDNSKNTLYLQMNSLSAEDTAVYYCARDSTAITYYYYGMDVWGQGTTVTVSS VL: MDMRVPAQLLGLLLLWLRGARCDIQMTQSPSSLSASVGDRVTITCRASQNISSYLNWFQQKPGKAPKLLIYAASGLKRGVPSRFSGSGSGTDFTLTIRTLQPDDFATYSCHQSYSLPFTFGPGTKVDIKR", "µg/mL", 0.013]
]}

Please look at the following binder next.
Ask: Record request: IC50 value, item 6.73.2 (antibody, V domains shown) VH: EVQLLESGGDLVQPGGSLRLSCAASGFTFRSYAMNWVRQAPGKGLEWVSVISGRGGTTYYADSVKGRFTISRDNSKNTLYLQMNSLRAEDAAVYYCAKIAVAGEGLYYYYGMDVWGQGTTVTVSS VL: MDMRVPAQLLGLLLLWLRGARCDIQMTQSPSSLSASVGDRVTFTCRASQNITNYLNWYQQKPGKAPKLLIYAASSLPRGVPSRFRGSGSGTDFTLTISSLQPEDFATYYCQQSYSNPPECGFGQGTTLDIKR
Reply: 0.02
